- Assayed target: rat mGluR5 (Rattus norvegicus, UniProt P31424)
- Construct: Rat cerebro-cortical membrane preparation was used; from tissue; host or cells: rat cerebral cortex (membrane preparation)
- Sequence (P31424 21-1203): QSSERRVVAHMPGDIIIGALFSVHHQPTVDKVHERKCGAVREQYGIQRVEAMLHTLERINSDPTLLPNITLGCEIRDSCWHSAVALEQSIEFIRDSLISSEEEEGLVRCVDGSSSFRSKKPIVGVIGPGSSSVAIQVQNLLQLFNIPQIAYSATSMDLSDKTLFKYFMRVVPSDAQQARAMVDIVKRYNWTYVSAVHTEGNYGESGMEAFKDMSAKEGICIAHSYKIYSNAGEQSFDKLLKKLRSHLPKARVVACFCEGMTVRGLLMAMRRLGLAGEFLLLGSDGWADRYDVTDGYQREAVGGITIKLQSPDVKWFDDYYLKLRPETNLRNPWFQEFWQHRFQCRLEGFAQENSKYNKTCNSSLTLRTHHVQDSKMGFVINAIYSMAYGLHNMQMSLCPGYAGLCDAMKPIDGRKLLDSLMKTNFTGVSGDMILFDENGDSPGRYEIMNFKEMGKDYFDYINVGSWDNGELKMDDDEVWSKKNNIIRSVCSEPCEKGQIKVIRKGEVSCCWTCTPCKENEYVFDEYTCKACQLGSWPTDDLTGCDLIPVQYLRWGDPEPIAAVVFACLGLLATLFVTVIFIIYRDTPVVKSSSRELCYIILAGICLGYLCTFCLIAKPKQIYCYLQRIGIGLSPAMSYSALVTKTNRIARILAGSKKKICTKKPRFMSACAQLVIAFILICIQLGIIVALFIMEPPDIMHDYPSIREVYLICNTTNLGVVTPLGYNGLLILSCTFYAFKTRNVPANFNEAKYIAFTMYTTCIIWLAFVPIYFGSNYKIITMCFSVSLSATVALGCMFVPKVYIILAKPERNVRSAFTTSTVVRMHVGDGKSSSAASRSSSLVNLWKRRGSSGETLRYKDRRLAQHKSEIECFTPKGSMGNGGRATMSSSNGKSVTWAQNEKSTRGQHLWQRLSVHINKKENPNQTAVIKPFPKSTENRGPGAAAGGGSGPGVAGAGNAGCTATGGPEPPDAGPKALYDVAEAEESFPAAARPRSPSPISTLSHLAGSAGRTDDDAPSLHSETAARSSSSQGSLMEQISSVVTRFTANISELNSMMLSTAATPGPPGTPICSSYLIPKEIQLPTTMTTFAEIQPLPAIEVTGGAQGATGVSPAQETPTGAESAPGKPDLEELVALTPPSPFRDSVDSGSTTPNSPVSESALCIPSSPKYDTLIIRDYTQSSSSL
- Test protocol: MGluR5 receptor binding test ([3H]-M-MPEP displacement, rat cerebro-cortical membrane preparation)
- Run conditions: rat mGluR5, [3H]-M-MPEP 2 nM; read-out: mGlu5 Ki
Collected Ki values appear next to each entry.

[
  {
    "Molecule": "COc1ccc(S(=O)(=O)c2cnc3c(F)cccc3c2-c2cccc(Cl)c2)cc1",
    "Ki": "< 0.2 µM"
  },
  {
    "Molecule": "COc1cccc(-c2c(S(=O)(=O)c3ccc(OC)c(Cl)c3)cnc3ccc(F)cc23)c1",
    "Ki": "< 0.2 µM"
  },
  {
    "Molecule": "O=S(=O)(c1cc(F)cc(F)c1)c1cnc2ccc(F)cc2c1-c1cccc(F)c1",
    "Ki": "0.2 to 0.5 µM"
  },
  {
    "Molecule": "N#Cc1cccc(S(=O)(=O)c2cnc3cc(Cl)ccc3c2-c2cccc(Cl)c2)c1",
    "Ki": "< 0.2 µM"
  },
  {
    "Molecule": "O=S(=O)(c1ccc(F)c(F)c1)c1cnc2c(F)c(Cl)ccc2c1-c1cccc(F)c1",
    "Ki": "< 0.2 µM"
  },
  {
    "Molecule": "O=S(=O)(c1cc(Cl)cc(Cl)c1)c1cnc2cc(F)ccc2c1-c1ccccc1F",
    "Ki": "< 0.2 µM"
  },
  {
    "Molecule": "O=S(=O)(c1ccc(F)c(F)c1)c1cnc2c(F)cccc2c1-c1cc(F)cc(F)c1",
    "Ki": "< 0.2 µM"
  },
  {
    "Molecule": "COc1ccc(S(=O)(=O)c2cnc3ccc(F)cc3c2-c2ccc(F)cc2)cc1",
    "Ki": "0.2 to 0.5 µM"
  },
  {
    "Molecule": "O=S(=O)(c1cc(Cl)cc(Cl)c1)c1cnc2cc(Cl)ccc2c1-c1cccc(Cl)c1",
    "Ki": "< 0.2 µM"
  },
  {
    "Molecule": "O=S(=O)(c1cc(F)cc(F)c1)c1cnc2cc(F)ccc2c1-c1cccc(F)c1",
    "Ki": "< 0.2 µM"
  },
  {
    "Molecule": "O=S(=O)(c1ccc(F)c(F)c1)c1cnc2ccccc2c1-c1cccc(F)c1",
    "Ki": "< 0.2 µM"
  },
  {
    "Molecule": "N#Cc1cc(C#N)cc(S(=O)(=O)c2cnc3cc(F)ccc3c2-c2ccc(F)cc2)c1",
    "Ki": "< 0.2 µM"
  },
  {
    "Molecule": "COc1ccc(-c2c(S(=O)(=O)c3ccc(OC)cc3)cnc3c(F)cccc23)cc1",
    "Ki": "< 0.2 µM"
  },
  {
    "Molecule": "O=S(=O)(c1cc(Cl)cc(Cl)c1)c1cnc2c(F)cccc2c1-c1ccccc1F",
    "Ki": "< 0.2 µM"
  },
  {
    "Molecule": "COc1cccc(-c2c(S(=O)(=O)c3ccc(C)c(C)c3)cnc3cc(F)ccc23)c1",
    "Ki": "< 0.2 µM"
  },
  {
    "Molecule": "O=S(=O)(c1ccc(F)c(Cl)c1)c1cnc2cc(F)ccc2c1-c1ccc(F)cc1",
    "Ki": "< 0.2 µM"
  },
  {
    "Molecule": "COc1ccc(S(=O)(=O)c2cnc3cc(F)ccc3c2-c2ccc(F)cc2)cc1Cl",
    "Ki": "< 0.2 µM"
  },
  {
    "Molecule": "O=S(=O)(c1ccc(F)c(F)c1)c1cnc2c(F)cccc2c1-c1ccc(F)cc1",
    "Ki": "< 0.2 µM"
  },
  {
    "Molecule": "O=S(=O)(c1cc(F)cc(F)c1)c1cnc2cc(Cl)ccc2c1-c1cccc(F)c1",
    "Ki": "< 0.2 µM"
  },
  {
    "Molecule": "COc1cccc(-c2c(S(=O)(=O)c3ccc(F)c(Cl)c3)cnc3ccc(F)cc23)c1",
    "Ki": "< 0.2 µM"
  },
  {
    "Molecule": "COc1ccc(-c2c(S(=O)(=O)c3cccc(F)c3)cnc3cc(F)ccc23)cc1",
    "Ki": "0.2 to 0.5 µM"
  },
  {
    "Molecule": "Cc1ccc(S(=O)(=O)c2cnc3cc(F)ccc3c2-c2ccc(F)cc2)cc1F",
    "Ki": "< 0.2 µM"
  },
  {
    "Molecule": "Cc1ccc(S(=O)(=O)c2cnc3ccc(F)cc3c2-c2cccc(F)c2)cc1F",
    "Ki": "< 0.2 µM"
  },
  {
    "Molecule": "O=S(=O)(c1cc(Cl)cc(Cl)c1)c1cnc2c(F)c(Cl)ccc2c1-c1cccc(Cl)c1",
    "Ki": "< 0.2 µM"
  },
  {
    "Molecule": "Cc1ccc(S(=O)(=O)c2cnc3c(F)cccc3c2-c2cccc(F)c2)cc1F",
    "Ki": "< 0.2 µM"
  },
  {
    "Molecule": "O=S(=O)(c1cc(F)cc(F)c1)c1cnc2c(F)cccc2c1-c1ccc(F)cc1",
    "Ki": "< 0.2 µM"
  },
  {
    "Molecule": "COc1ccc(-c2c(S(=O)(=O)c3cc(Cl)cc(Cl)c3)cnc3cc(F)ccc23)cc1",
    "Ki": "< 0.2 µM"
  },
  {
    "Molecule": "COc1cccc(-c2c(S(=O)(=O)c3cc(F)cc(F)c3)cnc3ccc(F)cc23)c1",
    "Ki": "0.2 to 0.5 µM"
  },
  {
    "Molecule": "COc1cccc(-c2c(S(=O)(=O)c3cccc(C#N)c3)cnc3cc(F)ccc23)c1",
    "Ki": "< 0.2 µM"
  },
  {
    "Molecule": "O=S(=O)(c1ccc(F)c(Cl)c1)c1cnc2cc(Cl)ccc2c1-c1ccc(Cl)cc1",
    "Ki": "< 0.2 µM"
  },
  {
    "Molecule": "O=S(=O)(c1cc(Cl)cc(Cl)c1)c1cnc2c(F)cccc2c1-c1ccc(Cl)cc1",
    "Ki": "< 0.2 µM"
  },
  {
    "Molecule": "N#Cc1cc(S(=O)(=O)c2cnc3cc(F)ccc3c2-c2cccc(F)c2)ccc1F",
    "Ki": "< 0.2 µM"
  },
  {
    "Molecule": "O=S(=O)(c1ccc(Cl)cc1)c1cnc2c(Cl)cccc2c1-c1ccc(Cl)cc1",
    "Ki": "0.2 to 0.5 µM"
  }
]
